Assignment: determine reported IC50 for the given molecules.
# System: IL-1 production in LPS-stimulated PBMCs
# ASSAY_NOTES: Inhibition of IL-1 production in LPS-stimulated PBMCs ("cell")
# Type: cell-based, human
# STATED_CONDITIONS: Homo sapiens, PBMC

Memo: Cc1ccc(-c2cccc(N(C(N)=O)c3c(Cl)cccc3Cl)n2)cc1 , reported IC50: 100 to 500 nM

Memo: O=c1ncn2nc(Sc3ccccc3)ccc2c1-c1ccccc1Cl , reported IC50: ≥ 500 nM

Memo: COc1ccccc1-c1cccc(C(C(N)=O)c2c(Cl)cccc2Cl)n1 (stereo not drawn) , reported IC50: 100 to 500 nM

Memo: CN(C)/C=N\c1ccc(C2=C3C=CC(Sc4ccc(F)cc4Cl)=NN3CNC2=O)c(Cl)c1 , reported IC50: ≤ 100 nM

Memo: Nc1ccc(Cl)c(C2=C3C=CC(Sc4ccc(F)cc4)=NN3CNC2=O)c1Cl , reported IC50: ≤ 100 nM

Memo: Nc1ccc(-c2c(=O)ncn3nc(Sc4ccc(F)cc4)ccc23)c(Cl)c1 , reported IC50: ≥ 500 nM

Memo: CN(C)/C=N\c1ccc(-c2c(=O)ncn3nc(Sc4ccc(F)cc4Cl)ccc23)c(Cl)c1 , reported IC50: 100 to 500 nM

Memo: Cc1cc(F)ccc1-c1cccc(N(C(N)=O)c2c(Cl)cccc2Cl)n1 , reported IC50: ≤ 100 nM

Memo: Cc1cc(Cl)ccc1SC1=NN2CNC(=O)C(c3c(Cl)cccc3Cl)=C2C=C1 , reported IC50: ≤ 100 nM
